- ASSAY_INFO: Formation of 1,5-cz-[M(Lig)] from Lig and M^III ions (metal dependent click-zip) (Charts 4, 5)
- Format: physicochemical
- CONDITION_PARAMETERS: 1 week at 80° C.; MOPS/NaOH buffer pH 7.0; TD728, TD827 in 50% i-PrOH; TD714 sum of two diastereoisomers
QUANTITY: conversion to 1,5-cz-[M(Lig)], Y^III (%)
The figure you give is taken to be in %; do not add the unit.

Recorded conversion to 1,5-cz-[M(Lig)], Y^III, per entry:
Query: For the compound [N-]=[N+]=NCc1cccc(CN2CCN(CC(=O)O)CCN(Cc3cccc(C#CC4CCNCC4)n3)CCN(CC(=O)O)CC2)n1 [TD1127] , what conversion to 1,5-cz-[M(Lig)], Y^III is on record?
Result: 83

Query: // returns reported conversion to 1,5-cz-[M(Lig)], Y^III for input C#Cc1cccc(CN2CCN(CC(=O)O)CCN(Cc3cccc(CN=[N+]=[N-])n3)CCN(CC(=O)O)CC2)n1 [TD556]
Result: 95

Query: Recorded conversion to 1,5-cz-[M(Lig)], Y^III of C#Cc1cccc(CN2CCN(CC(=O)O)CCN(Cc3cc(-c4ccccc4)cc(CN=[N+]=[N-])n3)CCN(CC(=O)O)CC2)n1 [TD647] , please.
Result: 93

Query: Could you share which conversion to 1,5-cz-[M(Lig)], Y^III value was measured for [N-]=[N+]=NCc1cccc(CN2CCN(CC(=O)O)CCN(Cc3cccc(C#CC4CC4)n3)CCN(CC(=O)O)CC2)n1 [TD943] ?
Result: 74

Query: Looking for the measured conversion to 1,5-cz-[M(Lig)], Y^III of C#Cc1cccc(CN2CCN(CC(=O)O)CCN(Cc3cc(N(C)C)cc(CN=[N+]=[N-])n3)CCN(CC(=O)O)CC2)n1 [TD1176] , can you help?
Result: 95

More entries:
Query: Please look up its conversion to 1,5-cz-[M(Lig)], Y^III: C#Cc1cccc(CN2CCN(CC(=O)O)CCN(Cc3cc(C(=O)OC)cc(CN=[N+]=[N-])n3)CCN(CC(=O)O)CC2)n1 [TD1092]
Result: 0

Query: What does the data say about its conversion to 1,5-cz-[M(Lig)], Y^III? Entry: C#Cc1cccc(CN2CCN(CC(=O)O)CCN(Cc3cc(C(=O)OC(C)C)cc(CN=[N+]=[N-])n3)CCN(CC(=O)O)CC2)n1 [TD1148]
Result: 0

Query: Give its conversion to 1,5-cz-[M(Lig)], Y^III value. Item: C#Cc1cccc(CN2CCN(CC(=O)O)CCN(Cc3cc(C#C[Si](C(C)C)(C(C)C)C(C)C)cc(CN=[N+]=[N-])n3)CCN(CC(=O)O)CC2)n1 [TD827]
Result: 96
